Study system: hT2R7 (Homo sapiens (Human), UniProt Q9NYW3)
Sequence (Q9NYW3 whole entry): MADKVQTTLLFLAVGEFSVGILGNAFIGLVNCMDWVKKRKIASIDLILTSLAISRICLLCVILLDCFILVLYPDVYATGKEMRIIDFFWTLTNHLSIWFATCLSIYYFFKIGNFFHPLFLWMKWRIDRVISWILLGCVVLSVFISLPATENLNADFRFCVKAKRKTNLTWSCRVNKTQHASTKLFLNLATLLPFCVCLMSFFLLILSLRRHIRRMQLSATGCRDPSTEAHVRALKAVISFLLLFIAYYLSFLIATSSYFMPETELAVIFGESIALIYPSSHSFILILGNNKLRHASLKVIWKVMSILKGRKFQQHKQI
Experimental protocol: hT2R panel inhibition, transient HEK293 G16g44, agonist Chloroquine pH6.5 10 mM
Assay type: cell-based
Test parameters: HEK293, compound at 25 μM; receptor activated to EC80 with the corresponding agonist; read-out: screening result against bitter receptor 7
Reported metric: inhibition at 25 µM

Qu. State the recorded inhibition at 25 µM for this entry: `COc1ccc(CN(Cc2ccc(F)c(OC)c2)S(=O)(=O)c2ccc(C(=O)O)cc2)cc1`
Ans. 20 to 40%

Qu. Likewise for `COc1ccc(CN(Cc2ccccc2)S(=O)(=O)c2ccc(C(=O)O)cc2)cc1` ?
Ans. 40 to 60%

Qu. Likewise for `COc1ccc(CN(Cc2ccccc2)S(=O)(=O)c2ccc(C(=O)O)cc2)c(OC)c1` ?
Ans. 20 to 40%

Qu. Likewise for `COc1ccc(CN(Cc2ccccc2Cl)S(=O)(=O)c2ccc(C(=O)O)cc2)cc1` ?
Ans. 20 to 40%

====

Can you tell me IC50 for the items I'm about to list?
Study system: hT2R14 (Homo sapiens (Human), UniProt Q9NYV8)
Sequence (Q9NYV8 whole entry): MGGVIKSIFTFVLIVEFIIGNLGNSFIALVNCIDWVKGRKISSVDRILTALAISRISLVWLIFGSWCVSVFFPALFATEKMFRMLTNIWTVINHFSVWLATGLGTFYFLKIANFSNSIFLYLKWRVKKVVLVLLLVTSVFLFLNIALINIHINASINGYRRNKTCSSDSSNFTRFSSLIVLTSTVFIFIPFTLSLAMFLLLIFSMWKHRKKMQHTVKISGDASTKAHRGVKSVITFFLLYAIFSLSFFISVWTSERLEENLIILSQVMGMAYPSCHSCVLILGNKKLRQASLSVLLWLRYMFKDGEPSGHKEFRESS
Experimental protocol: hT2R14 antagonist high-throughput FLIPR assay, stable cell line with G16g44, agonist aristolochic acid
Format: cell-based
Test parameters: Table C; read-out: hT2R14 IC50

Qu. Given the entry `N#Cc1ccc(CN(Cc2ccccc2)S(=O)(=O)c2ccc(C(=O)O)cc2)cc1` , what IC50 was observed with hT2R14 (Homo sapiens (Human), UniProt Q9NYV8)?
Ans. 1.85 µM

Qu. Likewise for `COc1ccc(CN(Cc2ccc(F)cc2F)S(=O)(=O)c2ccc(C(=O)O)cc2)cc1` ?
Ans. 1.26 µM

Qu. Likewise for `COc1ccc(CN(Cc2cc(OC)cc(OC)c2)S(=O)(=O)c2ccc(C(=O)O)cc2)cc1` ?
Ans. 12.1 µM

Qu. Likewise for `Cc1ccccc1CN(Cc1ccccc1)S(=O)(=O)c1ccc(C(=O)O)cc1` ?
Ans. 2.93 µM

Qu. Likewise for `O=C(O)c1ccc(CN(Cc2cccc(F)c2)S(=O)(=O)c2ccccc2)cc1` ?
Ans. 0.406 µM

Qu. Likewise for `COc1ccc(CN(Cc2ccccc2OC)S(=O)(=O)c2ccc(C(=O)O)cc2)cc1` ?
Ans. 2.94 µM

Qu. Likewise for `COc1cccc(CN(Cc2ccccc2)S(=O)(=O)c2ccc(C(=O)O)cc2)c1` ?
Ans. 5.99 µM

Qu. Likewise for Nc1ccc(S(=O)(=O)N(Cc2ccc(F)cc2)CC2CCC(C(=O)O)CC2)cc1 (centres unmarked) ?
Ans. 1.65 µM

Qu. Likewise for `COc1ccc(CN(Cc2ccccc2Cl)S(=O)(=O)c2ccc(C(=O)O)cc2)cc1` ?
Ans. 7.04 µM

Qu. Likewise for `N#Cc1ccccc1CN(Cc1ccccc1)S(=O)(=O)c1ccc(C(=O)O)cc1` ?
Ans. 4.63 µM

Qu. Likewise for `COc1cccc(CN(Cc2ccc(C(=O)O)cc2)S(=O)(=O)c2ccccc2)c1` ?
Ans. 0.345 µM

Qu. Likewise for `COc1ccc(CN(Cc2ccc(C(=O)O)cc2)S(=O)(=O)c2ccccc2)cc1` ?
Ans. 2.22 µM

Qu. Likewise for `O=C(O)c1ccc(S(=O)(=O)N(Cc2ccccc2)Cc2ccc(F)cc2)cc1` ?
Ans. 8.28 µM

Qu. Likewise for COc1ccc(CN(CC2CCC(C(=O)O)CC2)C(=S)Nc2ccccc2OC)cc1 (centres unmarked) ?
Ans. 8.85 µM

Qu. Likewise for CCOC(=O)C1CCC(CN(Cc2ccccc2Cl)S(=O)(=O)c2ccc(C)cc2)CC1 (centres unmarked) ?
Ans. 2.82 µM

Qu. Likewise for Cc1ccc(CN(CC2CCC(C(=O)O)CC2)S(=O)(=O)c2ccc(C)cc2)cc1 (centres unmarked) ?
Ans. 0.109 µM

Qu. Likewise for CCOC(=O)C1CCC(CN(Cc2cccc(Br)c2)S(=O)(=O)c2ccc3c(c2)OCCO3)CC1 (centres unmarked) ?
Ans. 2.57 µM
